Measured values drawn from patent US20260035365A1 for this set.

target.system: mutEGFR (D770_N771insNPG, T790)
Sequence (P00533 with tags, fused parts or gaps INS770NPG limits assumed): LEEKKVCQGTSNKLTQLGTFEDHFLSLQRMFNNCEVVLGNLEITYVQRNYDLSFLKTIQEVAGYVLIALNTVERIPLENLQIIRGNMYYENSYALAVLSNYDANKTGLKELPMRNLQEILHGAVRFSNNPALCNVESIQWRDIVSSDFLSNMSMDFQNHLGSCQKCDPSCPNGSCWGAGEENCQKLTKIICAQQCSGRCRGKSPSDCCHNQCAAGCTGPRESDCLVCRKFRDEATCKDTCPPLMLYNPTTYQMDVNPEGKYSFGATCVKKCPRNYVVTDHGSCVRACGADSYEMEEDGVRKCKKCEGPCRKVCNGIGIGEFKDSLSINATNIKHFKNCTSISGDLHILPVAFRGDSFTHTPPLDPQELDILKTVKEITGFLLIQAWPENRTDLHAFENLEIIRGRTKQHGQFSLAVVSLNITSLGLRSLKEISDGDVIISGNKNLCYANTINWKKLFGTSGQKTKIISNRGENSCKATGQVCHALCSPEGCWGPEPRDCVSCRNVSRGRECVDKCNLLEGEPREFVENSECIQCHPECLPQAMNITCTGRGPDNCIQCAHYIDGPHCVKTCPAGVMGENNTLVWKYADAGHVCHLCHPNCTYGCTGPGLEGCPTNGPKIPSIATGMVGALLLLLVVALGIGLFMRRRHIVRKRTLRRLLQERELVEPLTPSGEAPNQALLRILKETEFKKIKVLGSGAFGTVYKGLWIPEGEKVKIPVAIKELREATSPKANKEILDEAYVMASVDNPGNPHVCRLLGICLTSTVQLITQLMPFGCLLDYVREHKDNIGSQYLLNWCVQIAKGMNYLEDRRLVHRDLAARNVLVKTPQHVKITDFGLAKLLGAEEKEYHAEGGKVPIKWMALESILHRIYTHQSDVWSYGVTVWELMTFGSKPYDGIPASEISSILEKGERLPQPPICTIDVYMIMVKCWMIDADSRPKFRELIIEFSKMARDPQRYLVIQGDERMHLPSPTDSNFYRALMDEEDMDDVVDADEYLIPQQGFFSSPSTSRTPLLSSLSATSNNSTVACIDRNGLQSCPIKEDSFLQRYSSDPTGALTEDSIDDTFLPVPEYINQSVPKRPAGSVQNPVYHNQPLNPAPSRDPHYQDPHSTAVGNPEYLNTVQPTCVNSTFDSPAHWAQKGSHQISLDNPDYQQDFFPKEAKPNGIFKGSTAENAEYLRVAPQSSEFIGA
protocol.details: mutEGFR (D770_N771insNPG, T790) kinase assay
result.type: pIC50
Numbers only, as −log10 of the molar value.

Report pIC50 for each item below.
1. C=CC(=O)N(C)CCOc1cnccc1-c1[nH]c2cccnc2c1-c1cc(Cl)ccc1Cl
2. C=CS(=O)(=O)N(C)CCOc1cnccc1-c1[nH]c2cccnc2c1-c1cc(Cl)ccc1Cl
3. C=CS(=O)(=O)N(C)CCOc1cnccc1-c1[nH]c2cccnc2c1-c1cc(F)cc(F)c1
4. C=CC(=O)N(C)CCOc1cnccc1-c1[nH]c2cc(F)cnc2c1-c1ccccc1
5. C=CS(=O)(=O)N(C)CCOc1cnccc1-c1[nH]c2cccnc2c1-c1ccc2cc[nH]c2c1
6. C=CC(=O)N1CC[C@H]1COc1cnccc1-c1[nH]c2cccnc2c1-c1cccc(C(F)(F)F)c1 (single isomer, unassigned)
7. C=CC(=O)N1CCC[C@H]1COc1cnccc1-c1[nH]c2cccnc2c1-c1cccc(C#N)c1

Output:
1: 6.35; 2: 8.07; 3: 8.06; 4: 6.50; 5: 8.74; 6: 6.17; 7: 7.47

Report pIC50 for each item below.
1. C=CC(=O)N(C)CCOc1cnccc1-c1[nH]c2cccnc2c1-c1cccc(CC)c1
2. C=CC(=O)N1C[C@@H](N(C)CCN(C)C)C[C@H]1COc1cnccc1-c1[nH]c2cccnc2c1-c1ccccc1 (single isomer, unassigned) [Example 132]
3. C=CC(=O)N1CCC1(C)COc1cnccc1-c1[nH]c2cccnc2c1-c1ccccc1 (racemic)
4. C=CS(=O)(=O)N(C)C[C@H](C)Oc1cnccc1-c1[nH]c2cccnc2c1-c1ccccc1 (stereo in doubt)

Output:
7.12
7.56
4.76
7.00

---

target.system: mutEGFR (D770_N771insNPG, T790)
protocol.details: mutEGFR (D770_N771insNPG, T790) kinase assay
Please respond with reported IC50 for every item in the list.
Give bare numbers, in nM.

# annotated cases, reported IC50 shown
{"compound": "C=CC(=O)N1CCC(Oc2cnccc2-c2[nH]c3cccnc3c2-c2cccc(Cl)c2)C1 (racemic) [Example 119]", "result.type": "IC50", "observed.measurement": 58}
{"compound": "C=CC(=O)N(C)CCOc1cnccc1-c1[nH]c2cccnc2c1-c1cc(Cl)ccc1F [Example 43]", "result.type": "IC50", "observed.measurement": 33.2}
{"compound": "C=CC(=O)N(C)CCOc1cnccc1-c1[nH]c2cccnc2c1-c1cccc(Cl)c1 [Example 22]", "result.type": "IC50", "observed.measurement": 12.2}
{"compound": "C=CC(=O)N1CCC[C@H]1COc1cnccc1-c1[nH]c2cccnc2c1-c1ccc2ccsc2c1 [Example 81]", "result.type": "IC50", "observed.measurement": 1.29}

Report IC50 for each item below.
1. C#CC(=O)N1CCC[C@H]1COc1cnccc1-c1[nH]c2cccnc2c1-c1ccccc1 [Example 93]
2. C=CS(=O)(=O)N1CCC[C@H]1COc1cnccc1-c1[nH]c2cccnc2c1-c1ccc(F)c(OC(F)(F)F)c1 [Example 108]
3. C=CS(=O)(=O)N1CCC[C@H]1COc1cnccc1-c1[nH]c2c(C)ccnc2c1-c1ccccc1 [Example 136]

Output:
[3.14, 2.41, 0.706]

---

target.system: mutEGFR (D770_N771insSVD) (Homo sapiens, UniProt P00533, INS767SVD)
Sequence (P00533 with tags, fused parts or gaps INS767SVD limits assumed): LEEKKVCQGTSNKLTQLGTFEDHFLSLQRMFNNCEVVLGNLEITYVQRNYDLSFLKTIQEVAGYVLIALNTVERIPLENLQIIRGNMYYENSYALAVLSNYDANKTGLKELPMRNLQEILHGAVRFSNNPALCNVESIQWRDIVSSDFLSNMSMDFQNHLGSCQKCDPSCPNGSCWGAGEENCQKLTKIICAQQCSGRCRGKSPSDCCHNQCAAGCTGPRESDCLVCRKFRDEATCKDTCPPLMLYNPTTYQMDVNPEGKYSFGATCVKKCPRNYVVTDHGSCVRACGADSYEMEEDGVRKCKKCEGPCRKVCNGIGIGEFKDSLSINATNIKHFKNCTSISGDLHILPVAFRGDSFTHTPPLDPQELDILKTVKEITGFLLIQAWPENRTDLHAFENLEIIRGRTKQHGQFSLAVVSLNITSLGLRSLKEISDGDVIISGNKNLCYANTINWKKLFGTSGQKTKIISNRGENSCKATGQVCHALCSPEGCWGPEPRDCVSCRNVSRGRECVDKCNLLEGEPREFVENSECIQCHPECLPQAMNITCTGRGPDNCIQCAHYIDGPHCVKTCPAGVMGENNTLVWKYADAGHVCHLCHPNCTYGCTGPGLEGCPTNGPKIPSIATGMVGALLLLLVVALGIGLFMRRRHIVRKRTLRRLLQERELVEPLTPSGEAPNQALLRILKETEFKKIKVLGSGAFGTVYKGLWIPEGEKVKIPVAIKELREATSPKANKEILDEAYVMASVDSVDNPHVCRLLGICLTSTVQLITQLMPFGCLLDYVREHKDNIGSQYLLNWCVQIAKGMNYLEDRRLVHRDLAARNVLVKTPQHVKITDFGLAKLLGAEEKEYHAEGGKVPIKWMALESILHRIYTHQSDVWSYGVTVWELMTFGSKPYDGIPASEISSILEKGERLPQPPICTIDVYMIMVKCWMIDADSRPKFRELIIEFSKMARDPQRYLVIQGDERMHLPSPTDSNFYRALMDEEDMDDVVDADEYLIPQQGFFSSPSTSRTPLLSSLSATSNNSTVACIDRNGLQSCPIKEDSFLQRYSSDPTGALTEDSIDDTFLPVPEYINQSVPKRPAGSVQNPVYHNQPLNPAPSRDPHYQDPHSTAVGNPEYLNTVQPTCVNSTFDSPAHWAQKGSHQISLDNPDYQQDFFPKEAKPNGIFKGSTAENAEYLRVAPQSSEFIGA
protocol.details: Exon20-mutant-EGFR (D770_N771insSVD) TR-FRET kinase assay
particulars: 2 mM ATP, 15 min preincubation
result.type: pIC50
Give bare numbers, as −log10 of the molar value.

# annotated cases, reported pIC50 shown
{"compound": "C=CC(=O)N(C)CCOc1cnccc1-c1[nH]c2cccnc2c1-c1cc(Cl)ccc1Cl [Example 57]", "pIC50": 6.81}
{"compound": "C=CC(=O)N1CCC[C@H]1COc1cnccc1-c1[nH]c2cccnc2c1-c1cccc(C(F)(F)F)c1 [Example 39]", "pIC50": 8.92}
{"compound": "C=CC(=O)N1CC=C[C@H]1COc1cnccc1-c1[nH]c2cccnc2c1-c1ccccc1 [Example 115]", "pIC50": 9.55}
{"compound": "CN(C)C/C=C/C(=O)N1CCC[C@H]1COc1cnccc1-c1[nH]c2cccnc2c1-c1ccc(F)c(OC(F)F)c1 [Example 104]", "pIC50": 7.43}
{"compound": "C=CS(=O)(=O)N(C)CCOc1cnccc1-c1[nH]c2cccnc2c1-c1cc(OC)ccc1F [Example 73]", "pIC50": 8.06}
{"compound": "C=CC(=O)N(C)CCOc1cnccc1-c1[nH]c2cccnc2c1-c1cccc(Cl)c1OC [Example 21]", "pIC50": 6.54}
{"compound": "C=CC(=O)N(C)CCOc1cnccc1-c1[nH]c2cccnc2c1-c1cc(Cl)ccc1F [Example 43]", "pIC50": 7.93}

Input: What measured pIC50 goes with C#CC(=O)N1CCC(Oc2cnccc2-c2[nH]c3cccnc3c2-c2cc(C)ccc2F)C1 (racemic) [Example 125] ?
Output: 7.09

---

target.system: mutEGFR (D770_N771insSVD) (Homo sapiens, UniProt P00533, INS767SVD)
protocol.details: Exon20-mutant-EGFR (D770_N771insSVD) TR-FRET kinase assay
particulars: 2 mM ATP, 15 min preincubation
Please respond with reported IC50 for every item in the list.
Give bare numbers, in nM.

# annotated cases, reported IC50 shown
{"molecule": "C=CC(=O)N1CCC[C@H]1COc1cnccc1-c1[nH]c2cccnc2c1-c1cccc(CC)c1", "target.system": "mutEGFR (D770_N771insSVD) (Homo sapiens, UniProt P00533, INS767SVD)", "unit.abbreviation": "nM", "observed.measurement": 1.04}
{"molecule": "CN(C)C/C=C/C(=O)N(C)CCOc1cnccc1-c1[nH]c2cccnc2c1-c1ccccc1", "target.system": "mutEGFR (D770_N771insSVD) (Homo sapiens, UniProt P00533, INS767SVD)", "unit.abbreviation": "nM", "observed.measurement": 65.9}
{"molecule": "C=CC(=O)N1CCC(Oc2cnccc2-c2[nH]c3cccnc3c2-c2ccccc2)C1 (racemic)", "target.system": "mutEGFR (D770_N771insSVD) (Homo sapiens, UniProt P00533, INS767SVD)", "unit.abbreviation": "nM", "observed.measurement": 52.4}
{"molecule": "C=CC(=O)N1CCC1(C)COc1cnccc1-c1[nH]c2cccnc2c1-c1ccccc1 (racemic)", "target.system": "mutEGFR (D770_N771insSVD) (Homo sapiens, UniProt P00533, INS767SVD)", "unit.abbreviation": "nM", "observed.measurement": 3510}
{"molecule": "C=CC(=O)N(C)CCOc1cnccc1-c1[nH]c2cccnc2c1-c1ccc(Cl)c(OC)c1", "target.system": "mutEGFR (D770_N771insSVD) (Homo sapiens, UniProt P00533, INS767SVD)", "unit.abbreviation": "nM", "observed.measurement": 1540}
{"molecule": "C=C(F)C(=O)N1CCC[C@H]1COc1cnccc1-c1[nH]c2cccnc2c1-c1ccccc1", "target.system": "mutEGFR (D770_N771insSVD) (Homo sapiens, UniProt P00533, INS767SVD)", "unit.abbreviation": "nM", "observed.measurement": 77.3}
{"molecule": "CN(C)C/C=C/C(=O)N1CCC[C@H]1COc1cnccc1-c1[nH]c2cccnc2c1-c1cc(Cl)ccc1F", "target.system": "mutEGFR (D770_N771insSVD) (Homo sapiens, UniProt P00533, INS767SVD)", "unit.abbreviation": "nM", "observed.measurement": 2.03}

Okay, now this molecule:
Input: What measured IC50 goes with `C=CC(=O)N1CCC[C@H]1COc1cnccc1-c1[nH]c2cccnc2c1-c1cccc(Cl)c1Cl` ?
Output: 0.5

---

target.system: mutEGFR (D770_N771insSVD) (Homo sapiens, UniProt P00533, INS767SVD)
protocol.details: Exon20-mutant-EGFR (D770_N771insSVD) TR-FRET kinase assay
particulars: 2 mM ATP, 15 min preincubation
result.type: log10 IC50 (log10 of the value in nM)
Units before log transform: nM; reported quantity: IC50; transform: log10.

{"compound": "C#Cc1cccc(-c2c(-c3ccncc3OC[C@@H]3CCCN3C(=O)C=C)[nH]c3cccnc23)c1", "target.system": "mutEGFR (D770_N771insSVD) (Homo sapiens, UniProt P00533, INS767SVD)", "log10 IC50": -0.38}
{"compound": "C=CC(=O)N(C)CCOc1cnccc1-c1[nH]c2cccnc2c1-c1ccc2ccsc2c1", "target.system": "mutEGFR (D770_N771insSVD) (Homo sapiens, UniProt P00533, INS767SVD)", "log10 IC50": 1.32}
{"compound": "C=CS(=O)(=O)N(C)CCOc1cnccc1-c1[nH]c2cccnc2c1-c1cc(CC)ccc1F", "target.system": "mutEGFR (D770_N771insSVD) (Homo sapiens, UniProt P00533, INS767SVD)", "log10 IC50": 0.48}
{"compound": "C=CC(=O)N1CCC(Oc2cnccc2-c2[nH]c3cccnc3c2-c2cc(C)ccc2F)C1 (racemic)", "target.system": "mutEGFR (D770_N771insSVD) (Homo sapiens, UniProt P00533, INS767SVD)", "log10 IC50": 1.42}
{"compound": "C=CC(=O)N(C)CCOc1cnccc1-c1[nH]c2cccnc2c1-c1ccccc1OC", "target.system": "mutEGFR (D770_N771insSVD) (Homo sapiens, UniProt P00533, INS767SVD)", "log10 IC50": 2.76}
{"compound": "C=CC(=O)N1CCC[C@H]1COc1cnccc1-c1[nH]c2c(C)ccnc2c1-c1cc(Cl)ccc1F", "target.system": "mutEGFR (D770_N771insSVD) (Homo sapiens, UniProt P00533, INS767SVD)", "log10 IC50": -0.14}

Report log10 IC50 for each item below.
1. C=CS(=O)(=O)N(C)CCOc1cnccc1-c1[nH]c2cccnc2c1-c1cc(F)ccc1F
2. C=CS(=O)(=O)N(C)CCOc1cnccc1-c1[nH]c2cccnc2c1-c1cccc(Cl)c1

Output:
1: -0.06; 2: -0.46
